- Tested on: L1210 leukemia ip in BDF1 mice, survival T/C
- method notes: NCI In Vivo Anticancer Drug Screen. Data for tumor model L1210 Leukemia (intraperitoneal) in B6D2F1 (BDF1) mice
- measurement conditions: endpoint: mean survival time; dose: 200.0 mg/kg/injection; schedule: Q04DX003 (ip); vehicle: Klucel (hydroxypropylcellulose) (HPC); higher = longer survival
Toxic doses and inconclusive results are not listed.
Hi there, I'd appreciate the recorded T/C for every entry that follows.

Summary for this compound, CC(=O)c1ccccc1OS(=O)(=O)c1ccc([N+](=O)[O-])cc1 : T/C is 100 % of control

For this compound ( OCCCNc1nc2cc(Cl)ccc2c2ccc(Cl)cc12 ), measured T/C is 97 % of control

For reference, reported T/C for O=C(O)C1C2OC3C(OC(=O)C31)C2Br (stereo not drawn) stands at 92 % of control

---

Assign T/C to each entry below.
- Tested on: L1210 leukemia ip in BDF1 mice, survival T/C
- method notes: NCI In Vivo Anticancer Drug Screen. Data for tumor model L1210 Leukemia (intraperitoneal) in B6D2F1 (BDF1) mice
- measurement conditions: endpoint: mean survival time; dose: 100.0 mg/kg/injection; schedule: Q01DX009 (ip); vehicle: saline with Tween-80; higher = longer survival
Toxic doses and inconclusive results are not listed.

In plain terms, CC(=O)OCC(C)CCC(=O)C(C)C1C(=O)CC2C3CC=C4CC(OC(C)=O)CCC4(C)C3CCC21C (stereo not given) has a documented T/C of 96 % of control

Documented T/C of Cc1c(C(=O)O)cc([N+](=O)[O-])cc1[N+](=O)[O-] : 97 % of control

Lab book: T/C of Cc1cc2c3ccccc3nc(C(F)(F)F)n2n1 noted as 97 % of control

Reported T/C ( CCCCNC(C)(C)C(=O)c1ccco1 ) = 97 % of control

Looking up CCC1(c2ccccc2)C(=O)N(CCl)C(=O)N(CCl)C1=O , I see its T/C listed as 93 % of control

Recorded T/C (compound O=C(O)c1cccc([N+](=O)[O-])c1C(=O)O ): 95 % of control

// field: T/C; key: O=C(Nc1ccccc1C(F)(F)F)c1ccc(Cl)cc1Cl ; value = 91 % of control

For record CN(C)CCN(C)/N=N/c1nc[nH]c1C(N)=O the listed T/C is 108 % of control

The reported value for COc1ccc(OC(=O)CCCl)cc1 in terms of T/C is 104 % of control

// field: T/C; key: C/C=C/C1CC2CC(C1C)C2(C)C (stereo not given) ; value = 97 % of control

Form field T/C, entry Cc1c(Cl)cccc1NC(=O)COc1ccc(Cl)cc1Cl : 88 % of control

In plain terms, Cc1ccc(N2CCN(C3=CCC(C(C)C)CC3)CC2)cc1Cl (stereo not given) has a documented T/C of 106 % of control

Briefly, T/C measured for Cc1ccc(S(=O)(=O)CO)cc1 : 89 % of control

For this compound ( C=CN1C(=O)N(C=C)C(C)(CC(C)C)C1=O (stereo not given) ), measured T/C is 103 % of control

For record c1cc2c(c(C3=NCCO3)c1)CCCC2 (tested in a mixture with another compound) the listed T/C is 96 % of control

Note to self: T/C recorded for Oc1ccc(C=Nc2ccccc2N=Cc2ccc(O)c(O)c2)cc1O was 105 % of control

Item: CCOC(=O)c1cc(CC)sc1N | T/C: 96 % of control

Quick note, T/C for CC(C)C(N)(CCN1CCOCC1)c1cccc2ccccc12 (stereo not given) landed at 99 % of control

The recorded T/C for CC(=O)N(C)c1ccc(NC(=O)Cc2ccccc2)cc1 is 96 % of control

Form: compound = C=Cc1ccc(Oc2ccccc2)cc1 ; T/C = 112 % of control

Memo: CCOC(=O)CCC(NC(=O)c1cccc(N(C)C=O)c1)C(=O)OCC (stereo not given) , reported T/C: 92 % of control

Kindly note the recorded T/C for CCOC(=O)C(Cc1c[nH]c2ccccc12)(NC(C)=O)C(=O)OCC , which is 88 % of control

Consider COc1cc(OC)c(OC)cc1/C=C/c1ccc2ccccc2n1 . Its measured T/C is 91 % of control

// recorded T/C for c1ccc(C2CCCCO2)cc1 (stereo not given) : 94 % of control

Summary for this compound, OCCOc1ccc(Cl)cc1 : T/C is 98 % of control

Notebook: O=c1cc(Cl)c(=O)[nH][nH]1 , T/C read as 100 % of control

T/C reported for this compound O=C1C(=O)c2c3ccccc3cc3cccc1c23 : 91 % of control

T/C recorded for this compound, CCOC(=O)C(NC(=O)OCc1ccccc1)(OCc1ccccc1)C(C)C (stereo not given) , is 105 % of control

The compound identified as CCOC(=O)C(=CNc1cccc2cnccc12)C(=O)OCC registered its T/C at 88 % of control

For this compound ( CCO/C=C/C(=O)NC(=S)Nc1ccccc1 ), measured T/C is 86 % of control

Source listed as PubChem BioAssay AID248.
